System: BXPC-3
test.method.notes: cells
Format: functional, cell-based
measurement.context: Homo sapiens
Description: SANGER: Inhibition of human BxPC-3 cell growth in a cell viability assay.
List of IC50 values.
Report only the number, with the unit nM understood.

Solved cases (2 shown):
1. CCNC(=O)c1noc(-c2cc(C(C)C)c(O)cc2O)c1-c1ccc(CN2CCOCC2)cc1 | 43.4
2. O=c1[nH]c2ccccc2n1C1CCN(Cc2ccc(-c3nc4cc5[nH]cnc5cc4nc3-c3ccccc3)cc2)CC1 | 2220

--- query ---
Query string: // lookup IC50 | system=BXPC-3 | key= `C/C=C(/C)C(=O)O[C@H]1C(C)=C2[C@H]([C@@H]1OC(=O)CCCCCCC)[C@@](C)(OC(C)=O)C[C@H](OC(=O)CCC)[C@@]1(O)[C@H]2OC(=O)[C@@]1(C)O`;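 further: growth inhibition of human BxPC-3 cells, read out by a cell viability assay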
Result string: 6.53

###

List of pIC50 values.
Tested on: KNS-81-FD
test.method.notes: cells
Format: functional, cell-based
measurement.context: Homo sapiens
Description: SANGER: Inhibition of human KNS-81-FD cell growth in a cell viability assay.
pIC50: −log10 of the molar value.

1) Cn1cc(/C=C2\C(=O)Nc3cccnc32)c2ccccc21 | < 5.70

Query string: // lookup pIC50 | system=KNS-81-FD | key= `N#C/C(=C1/Nc2ccccc2S1)c1ccnc(NCCc2cccnc2)n1`
Result string: < 5.10

Query string: // lookup pIC50 | system=KNS-81-FD | key= C[C@]1(c2nc3c(C(N)=O)cccc3[nH]2)CCCN1 [VELIPARIB]
Result string: < 5.30

Query string: // lookup pIC50 | system=KNS-81-FD | key= C/C=C(/C)C(=O)O[C@H]1C(C)=C2[C@H]([C@@H]1OC(=O)CCCCCCC)[C@@](C)(OC(C)=O)C[C@H](OC(=O)CCC)[C@@]1(O)[C@H]2OC(=O)[C@@]1(C)O [THAPSIGARGIN];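 further: growth inhibition of KNS-81-FD cells, read out with a cell viability assay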
Result string: < 6.29

###

List of pIC50 values.
Test system: NY
test.method.notes: cells
Assay type: functional, cell-based
measurement.context: Homo sapiens
Description: SANGER: Inhibition of human NY cell growth in a cell viability assay.
pIC50: −log10 of the molar value.

1) C[C@]12O[C@H](C[C@]1(O)CO)n1c3ccccc3c3c4c(c5c6ccccc6n2c5c31)CNC4=O | < 5.70
2) Fc1cc(-c2cc[nH]/c(=N/c3ccc(-n4cnc(N5CCOCC5)n4)cc3)n2)cc(N2CCOCC2)c1 | 6.21
3) COc1cc(Nc2c(C#N)cnc3cc(OCCCN4CCN(C)CC4)c(OC)cc23)c(Cl)cc1Cl | < 5.70

--- query ---
Query string: Fill in the blank: the reported pIC50 of `O=c1[nH]c2ccccc2n1C1CCN(Cc2ccc(-c3nc4cc5[nH]cnc5cc4nc3-c3ccccc3)cc2)CC1` is ____.
Result string: < 5.59

###

Test system: HAL-01
test.method.notes: cells
Assay type: functional, cell-based
measurement.context: Homo sapiens
Description: SANGER: Inhibition of human HAL-01 cell growth in a cell viability assay.
property.measured: IC50

Solved cases (4 shown):
1. CC(=O)c1c(C)c2cnc(Nc3ccc(N4CCNCC4)cn3)nc2n(C2CCCC2)c1=O | 0.606 µM
2. Cc1[nH]c(/C=C2\C(=O)Nc3ccc(S(=O)(=O)Cc4c(Cl)cccc4Cl)cc32)c(C)c1C(=O)N1CCC[C@@H]1CN1CCCC1 | > 2 µM
3. C/C(O)=C(\C#N)C(=O)Nc1cc(Br)ccc1Br | > 16 µM
4. CC(O)(CS(=O)(=O)c1ccc(F)cc1)C(=O)Nc1ccc(C#N)c(C(F)(F)F)c1 (stereo not given) [BICALUTAMIDE] | > 1.02 µM

--- query ---
Query string: Fill in the blank: the reported IC50 of `Cc1n[nH]c2ccc(-c3cncc(OC[C@@H](N)Cc4c[nH]c5ccccc45)c3)cc12` is ____.
Result string: > 1.02 µM
